Field: IC50. System: High affinity nerve growth factor receptor (Homo sapiens). Provenance: assorted publications.

| Compound | IC50 |
| --- | --- |
| COCCN1C[C@@H](NC(=O)Nc2sc(C(C)C)nc2-c2ccccc2)[C@H](c2ccccc2)C1 | < 100 nM |
| COCCCc1ccc(Cl)cc1NC(=O)Nc1c(C)c(-c2cnn(C)c2)nn1-c1ccccc1 | < 100 nM |
| Cc1n[nH]c2cc(-c3ccc(C(=O)NC4CCC4)c(N4CCN(C5CCCCC5)CC4)c3)cc(OC3CCOCC3)c12 | 39.8 nM |
| CNc1ncnc2[nH]cc(C(=O)c3ccc(NC4CCC(F)(F)CC4)nc3Cl)c12 | < 1000 nM |
| COCCN1C[C@@H](NC(=O)Nc2c(C)c(OCC(N)=O)nn2-c2ccccc2)[C@H](c2ccc(F)c(F)c2)C1 | < 100 nM |

Please report the recorded IC50 for COCCN1C[C@@H](NC(=O)Nc2c(C)c(-c3cnn(C)c3)nn2-c2ccccc2)[C@H](c2ccc(F)cc2F)C1 .
< 100 nM

What about COCCOc1ccc(C(F)(F)F)cc1NC(=O)Nc1c(C)c(-c2cnn(C)c2)nn1-c1ccccc1 ?
< 100 nM

What about COCCN1C[C@@H](NC(=O)Nc2cc(C(C)C)nn2-c2ccccc2)[C@H](c2cccc(Cl)c2)C1 (relative stereo) ?
< 100 nM

What about COc1cc(N2CCN(C(C)=O)CC2)ccc1NC(=O)c1coc2c1C(=O)C(C)(CN)CC2 (centres unmarked) ?
59.6 nM

What about COCCN1C[C@@H](NC(=O)Nc2c(C)c(-c3cnn(C)c3)nn2-c2cncc(Cl)c2)[C@H](c2ccc(F)c(F)c2)C1 ?
100 to 1000 nM

What about CC(C)Oc1nc(N2C[C@H]3CCN(C(=O)N4CCN(C)CC4)[C@H]3C2)ccc1NC(=O)c1coc2c1C(=O)NC(C)(C)C2 ?
6.9 nM

---

Field: IC50. System: High affinity nerve growth factor receptor (Homo sapiens, UniProt P04629). Provenance: assorted publications.

Illustrative cases are given below, each with its answer.
| Molecule | IC50 |
| --- | --- |
| Fc1ccccc1Cc1ccc2[nH]nc(C#Cc3ccccn3)c2c1 | 0.11 µM |
| Cc1cc(NC(=O)N[C@@H]2c3cc(F)c(F)cc3C(C)(C)C[C@H]2O)c(-c2ccccc2)nc1-c1ccc(C#N)cc1 (racemic) | ≤ 0.05 µM |
| CNC(=O)c1ccc(-c2cc(OC3CCOCC3)c3c(N)n[nH]c3c2)cc1N1CCN(c2ncc(F)cn2)CC1 | 0.00474 µM |

Please report the recorded IC50 for COCCN1C[C@@H](NC(=O)Nc2cc(-c3ccncc3)nn2C)[C@H](c2ccc(F)c(F)c2)C1 .
< 0.1 µM

What about CCOc1ccc(Nc2ncc(Cc3c[nH]c4ncc(C)cc34)cn2)cn1 ?
< 1 µM

What about COCCN1C[C@@H](NC(=O)Nc2cc(-c3cccc(C#N)c3)nn2C)[C@H](c2ccc(F)c(F)c2)C1 ?
< 0.1 µM

What about Cc1cc2[nH]ncc2cc1NC(=O)c1coc2c1C(=O)N(C)CC2 ?
2.59 µM

What about COCCN1C[C@@H](NC(=O)Nc2c(CO)cnn2-c2ccccc2)[C@H](c2ccc(F)c(F)c2)C1 ?
< 0.1 µM

---

pIC50: −log10 of the molar value.
Field: pIC50. System: High affinity nerve growth factor receptor (Homo sapiens). Provenance: assorted publications.

Please report the recorded pIC50 for CCOc1ccn(-c2ccc(F)cc2)c(=O)c1C(=O)Nc1ccc(Oc2ncnc3cc(OC)c4c(c23)OCCO4)c(F)c1 .
> 7.30

What about C[C@@H](Cc1c(F)c(F)cc(F)c1F)Nc1cc[nH]c(=O)c1-c1nc2cc3c(cc2[nH]1)C(=O)N(c1cccnc1)C3O (stereo partly drawn) ?
8.20

What about COCCN1C[C@@H](NC(=O)Nc2c(Cl)c(-c3cnn(C)c3)nn2C)[C@H](c2ccc(F)c(F)c2)C1 ?
6.00 to 7.00

What about COCCN1C[C@@H](NC(=O)Nc2cc(-c3cccc4nccn34)nn2C)[C@H](c2ccc(F)c(F)c2)C1 ?
> 7.00

What about Cn1cc(-c2cnc3[nH]cc(Cc4c(F)ccc(OCC(F)(F)F)c4Cl)c3c2)cn1 ?
≥ 5.00

What about CCOc1ccn(-c2ccc(F)cc2)c(=O)c1C(=O)Nc1ccc(Oc2ccnc3cc(OCCCC#N)c4c(c23)OCCO4)c(F)c1 ?
> 7.30

What about CCOc1cc(Nc2nc3c(cc2F)ncn3[C@@H](C)c2ccc(F)cn2)n[nH]1 ?
8.52

What about Cn1cc2cc(NC(=O)c3coc4c3C(=O)CNC4)ccc2n1 ?
6.59

What about COCCN1C[C@@H](NC(=O)Nc2c(C)c(OCC(F)(F)F)nn2-c2ccccc2)[C@H](c2ccc(F)c(F)c2)C1 ?
> 7.00

What about COCCN1C[C@@H](NC(=O)Nc2oc(-c3ccccc3)nc2C)[C@H](c2ccccc2)C1 ?
6.00 to 7.00

What about CNC(=O)c1nn(-c2ccccc2)c(NC(=O)Nc2cc(Cl)c(Cl)cc2CC(F)(F)COC)c1C ?
> 7.00

What about Cc1ccnc(-c2ccccc2)c1NC(=O)N[C@@H]1c2cc(F)c(F)cc2C(C)(C)C[C@H]1O (racemic) ?
6.00 to 7.30

What about CCc1ccc(Nc2ccc(Cc3c[nH]c4ncnc(C5CC5)c34)c(F)n2)cn1 ?
> 8.00

What about CCOc1nn(-c2ccccc2)c(NC(=O)N[C@@H]2CN(c3ccccc3)C[C@H]2c2ccc(F)c(F)c2)c1C ?
6.00 to 7.00

What about COc1ccn(-c2ccc(F)cc2)c(=O)c1C(=O)Nc1ccc(Oc2ccnc3cc(OCCCN4CCCCC4)c4c(c23)OCCO4)c(F)c1 ?
> 7.30

---

pIC50: −log10 of the molar value.
Field: pIC50. System: UniProt:P04629. Provenance: assorted publications.

| Compound | Readout type | Obs value |
| --- | --- | --- |
| COCCN1C[C@@H](NC(=O)Nc2c(Cl)c(-c3cnn(CCOC)c3)nn2-c2ccccc2)[C@H](c2ccc(F)c(F)c2)C1 | pIC50 | > 7.00 |
| CCC(C)Nc1ncnc2[nH]cc(C(=O)c3ccc(Nc4ccc(OC)nc4)nc3F)c12 (centres unmarked) | pIC50 | > 8.00 |
| COc1ccc(Nc2ccc(Cc3c[nH]c4ncc(C)cc34)c(F)n2)cn1 | pIC50 | > 7.00 |

Please report the recorded pIC50 for COCCCc1cc(Cl)c(Cl)cc1NC(=O)Nc1c(C)c(OCC2CN(C)C2)nn1-c1ccccc1 .
> 7.00

What about COCCN1C[C@@H](NC(=O)Nc2c(Cl)c(OC[C@@H](C)O)nn2-c2ccccc2)[C@H](c2cc(F)cc(F)c2)C1 ?
> 7.00

What about CCn1nc(C)c(NC(=O)N[C@@H]2CN(CCOC)C[C@H]2c2ccc(F)c(F)c2)c1-c1ccccc1 ?
> 7.00

What about NC(=O)c1ccc(-c2cc(OC3CCOCC3)c3c(N)n[nH]c3c2)cc1N1CCN(c2cccc(Cl)c2)CC1 ?
8.54

What about CC(C)(O)CNc1ncnc2[nH]cc(C(=O)c3ccc(Nc4ccc(C5CC5)nc4)nc3F)c12 ?
> 8.00

What about COCCN1C[C@@H](NC(=O)Nc2c(Cl)c(C(F)(F)CO)nn2-c2ccccc2)[C@H](c2ccc(F)cc2)C1 ?
> 7.00

What about CNC(=O)c1ccc(-c2cc(OC(C)C(F)(F)F)c3c(N)n[nH]c3c2)cc1N1CCN(CCN2CCOCC2)CC1 (centres unmarked) ?
6.18

What about CNc1ncnc2[nH]cc(C(=O)c3ccc(Nc4ccc(C5CC5)nc4)nc3F)c12 ?
> 8.00

What about COCCN1C[C@@H](NC(=O)Nc2c(C)c([C@H]3C[C@@H](O)C3)nn2-c2ccccc2)[C@H](c2cc(F)cc(F)c2)C1 ?
> 7.00

---

Field: IC50. System: UniProt:P04629. Provenance: assorted publications.

Illustrative cases are given below, each with its answer.
| Molecule | IC50 |
| --- | --- |
| COCCN1C[C@@H](NC(=O)Nc2c(C)c(-c3cnn(C(C)C)c3)nn2-c2ccccc2)[C@H](c2ccc(F)c(F)c2)C1 | < 100 nM |
| CCOc1ccc(Nc2ccc(Cc3c[nH]c4ncc(C)cc34)c(F)n2)cn1 | < 100 nM |

Please report the recorded IC50 for CCOc1ccn(-c2ccc(F)cc2)c(=O)c1C(=O)Nc1ccc(Oc2ncnc3cc(OCCCN4CCOCC4)c4c(c23)OCCO4)c(F)c1 .
< 50 nM

What about CCOc1nn(-c2ccccc2)c(NC(=O)N[C@@H]2CN(CCOC)C[C@H]2c2ccc(F)c(F)c2)c1F ?
< 100 nM

What about Cc1cc(NC(=O)N[C@@H]2c3cc(F)c(F)cc3C(C)(C)C[C@H]2O)c(-c2ccccc2)nc1-c1cccc(C#N)c1 (racemic) ?
≤ 50 nM

What about Cc1c(C#Cc2cnc3ccc(N4CC[C@H](O)C4)nn23)cccc1C(=O)Nc1cc(Cl)cc(C(F)(F)F)c1 ?
10 to 100 nM

What about COCCN1C[C@@H](NC(=O)Nc2c(Cl)c(-c3ccccc3)nn2-c2ccccc2)[C@H](c2cncc(F)c2)C1 (relative stereo) ?
< 100 nM
